Please respond with reported Stability of Cannabinoids in AB Red for every item in the list.
# Protocol details: Stability of cannabinoid and Vitamin E components of Beverage 2 (AB Red) stored at 8° C. and 21-25° C., LCMSMS over 570 days
# Stated conditions: 8° C., 18 days
The answer should read as a number with its unit following.

Known Stability of Cannabinoids in AB Red results, listed for orientation:
Molecule: CCCCCc1cc(O)c(C/C=C(\C)CCC=C(C)C)c(O)c1
Stability of Cannabinoids in AB Red: 4.67 µg/mL

Molecule: CCCCCc1cc(O)c2c(c1)OC(C)(CCC=C(C)C)C=C2 (stereo not drawn)
Stability of Cannabinoids in AB Red: 0.289 µg/mL

Molecule: C=C(C)[C@@H]1CCC(C)=C[C@H]1c1c(O)cc(CCC)cc1O
Stability of Cannabinoids in AB Red: 0.195 µg/mL

Molecule: CCCCCc1cc(O)c2c(c1)OC(C)(C)[C@@H]1CCC(C)=C[C@@H]21 [D9 THC, delta-9-tetrahydrocannabinol, reference compound]
Stability of Cannabinoids in AB Red: 12.8 µg/mL

Molecule: CCCCCc1cc(O)c2c(c1)OC(C)(C)c1ccc(C)cc1-2
Stability of Cannabinoids in AB Red: 2.78 µg/mL

// each listed molecule needs a value for Stability of Cannabinoids in AB Red
1. CCCCCc1cc(O)c2c(c1)OC1(C)CCC3C1C2C3(C)C (stereo not drawn)
2. CCCCCc1cc2c(c(O)c1C(=O)O)[C@@H]1C=C(C)CC[C@H]1C(C)(C)O2 [D9 THCA, delta-9-tetrahydrocannabinolic acid]
3. C=C(C)[C@@H]1CCC(C)=C[C@H]1c1c(O)cc(CCCCC)c(C(=O)O)c1O
4. CCCc1cc(O)c2c(c1)OC(C)(C)[C@@H]1CCC(C)=C[C@@H]21 [THCV, delta-9-tetrahydrocannabivarin]

Response line:
1. 0.513 µg/mL
2. 1.35 µg/mL
3. 1.65 µg/mL
4. 3.17 µg/mL

----------
# Format: physicochemical
# Stated conditions: stored at room temperature (21-25° C.), day 24
Note to self: values exactly at 0.5 mg/g powder are label 1. So Stability in Powder Concentrate (content by LCMSMS) at or above 0.5 mg/g powder is label 1, below is label 0.

Below, 10 compounds whose answers are already recorded.
Compound: CCCCCc1cc(O)c2c(c1)OC(C)(C)[C@@H]1CCC(C)=C[C@@H]21 [D9 THC, delta-9-tetrahydrocannabinol, reference compound]
Class: label 1
//
Compound: CCCCCc1cc(O)c2c(c1)OC1(C)CCC3C1C2C3(C)C (stereo not shown)
Class: label 0
//
Compound: CCCCCc1cc(O)c2c(c1)OC(C)(CCC=C(C)C)C=C2 (stereo not shown)
Class: label 0
//
Compound: Cc1c(C)c2c(c(C)c1OC(=O)CCC(=O)O)CC[C@@](C)(CCC[C@H](C)CCC[C@H](C)CCCC(C)C)O2 [α-Tocopheryl succinate]
Class: label 1
//
Compound: CCCCCc1cc2c(c(O)c1C(=O)O)[C@@H]1C=C(C)CC[C@H]1C(C)(C)O2 [D9 THCA, delta-9-tetrahydrocannabinolic acid]
Class: label 0
//
Compound: CCCCCc1cc(O)c2c(c1)OC(C)(C)c1ccc(C)cc1-2
Class: label 0
//
Compound: CCCc1cc(O)c2c(c1)OC(C)(C)[C@@H]1CCC(C)=C[C@@H]21 [THCV, delta-9-tetrahydrocannabivarin]
Class: label 1
//
Compound: Cc1c(C)c2c(c(C)c1O)CC[C@@](C)(CCC[C@H](C)CCC[C@H](C)CCCC(C)C)O2
Class: label 1
//
Compound: CC(=O)Oc1c(C)c(C)c2c(c1C)CCC(C)(CCC[C@H](C)CCC[C@H](C)CCCC(C)C)O2 (stereo partly drawn) [α-Tocopheryl acetate]
Class: label 1
//
Compound: CCCCCc1cc(O)c(C/C=C(\C)CCC=C(C)C)c(O)c1
Class: label 1

Prompt line: Hi team, for C=C(C)[C@@H]1CCC(C)=C[C@H]1c1c(O)cc(CCCCC)cc1O [CBD, cannabidiol, reference compound] , is the recorded Stability in Powder Concentrate (content by LCMSMS) at or above 0.5 mg/g powder?
Response line: label 1

Prompt line: Hi team, for C=C(C)[C@@H]1CCC(C)=C[C@H]1c1c(O)cc(CCCCC)c(C(=O)O)c1O , is the recorded Stability in Powder Concentrate (content by LCMSMS) at or above 0.5 mg/g powder?
Response line: label 0

Prompt line: Hi team, for C=C(C)[C@@H]1CCC(C)=C[C@H]1c1c(O)cc(CCC)cc1O , is the recorded Stability in Powder Concentrate (content by LCMSMS) at or above 0.5 mg/g powder?
Response line: label 0

----------
# Protocol details: Stability of cannabinoid and Vitamin E components of Beverage 2 (AB Red) stored at 8° C. and 21-25° C., LCMSMS over 570 days
# Stated conditions: 8° C., 390 days
Quantity measured: Stability of Cannabinoids in AB Red (µg/mL)
One number for each entry, in µg/mL.

Compound: C=C(C)[C@@H]1CCC(C)=C[C@H]1c1c(O)cc(CCCCC)c(C(=O)O)c1O
Stability of Cannabinoids in AB Red (µg/mL): 1.63
//
Compound: CCCCCc1cc(O)c2c(c1)OC(C)(C)[C@@H]1CCC(C)=C[C@@H]21 [D9 THC, delta-9-tetrahydrocannabinol, reference compound]
Stability of Cannabinoids in AB Red (µg/mL): 12.4
//
Compound: CCCc1cc(O)c2c(c1)OC(C)(C)[C@@H]1CCC(C)=C[C@@H]21 [THCV, delta-9-tetrahydrocannabivarin]
Stability of Cannabinoids in AB Red (µg/mL): 3.08
//
Compound: C=C(C)[C@@H]1CCC(C)=C[C@H]1c1c(O)cc(CCC)cc1O
Stability of Cannabinoids in AB Red (µg/mL): 0.194
//
Compound: CCCCCc1cc(O)c2c(c1)OC(C)(C)c1ccc(C)cc1-2
Stability of Cannabinoids in AB Red (µg/mL): 2.72
//
Compound: CCCCCc1cc(O)c(C/C=C(\C)CCC=C(C)C)c(O)c1
Stability of Cannabinoids in AB Red (µg/mL): 4.55
//
Compound: CCCCCc1cc(O)c2c(c1)OC1(C)CCC3C1C2C3(C)C (stereo not drawn)
Stability of Cannabinoids in AB Red (µg/mL): 0.491
//
Compound: CCCCCc1cc2c(c(O)c1C(=O)O)[C@@H]1C=C(C)CC[C@H]1C(C)(C)O2 [D9 THCA, delta-9-tetrahydrocannabinolic acid]
Stability of Cannabinoids in AB Red (µg/mL): 1.29

# input for lookup
Prompt line: I have this compound here, CCCCCc1cc(O)c2c(c1)OC(C)(CCC=C(C)C)C=C2 (stereo not drawn) , and I need its recorded Stability of Cannabinoids in AB Red.
Response line: 0.282

----------
Please respond with reported Stability in AB White, 8° C. (content by LCMSMS) for every item in the list.
# Protocol details: Stability of cannabinoid and Vitamin E components of Beverage 1 (AB White) stored at 8° C. and 21-25° C., LCMSMS over 570 days
# Assay type: physicochemical
# Stated conditions: beverage stored at 8° C., day 1
Answers are plain numbers, in µg/mL.

Known Stability in AB White, 8° C. (content by LCMSMS) results, listed for orientation:
Compound: CCCCCc1cc(O)c(C/C=C(\C)CCC=C(C)C)c(O)c1
Reported result: 4.74
//
Compound: C=C(C)[C@@H]1CCC(C)=C[C@H]1c1c(O)cc(CCC)cc1O
Reported result: 0.146

Prompt line: I have this compound here, CCCc1cc(O)c2c(c1)OC(C)(C)[C@@H]1CCC(C)=C[C@@H]21 [THCV, delta-9-tetrahydrocannabivarin] , and I need its recorded Stability in AB White, 8° C. (content by LCMSMS).
Response line: 3.54

----------
Please respond with reported Stability in AB White, 8° C. (content by LCMSMS) for every item in the list.
# Protocol details: Stability of cannabinoid and Vitamin E components of Beverage 1 (AB White) stored at 8° C. and 21-25° C., LCMSMS over 570 days
# Format: physicochemical
# Stated conditions: beverage stored at 8° C., day 26
One number for each entry, in µg/mL.

Compound: CCCCCc1cc(O)c2c(c1)OC(C)(C)c1ccc(C)cc1-2
Reported result: 2.76
//
Compound: C=C(C)[C@@H]1CCC(C)=C[C@H]1c1c(O)cc(CCC)cc1O
Reported result: 0.152
//
Compound: CCCc1cc(O)c2c(c1)OC(C)(C)[C@@H]1CCC(C)=C[C@@H]21 [THCV, delta-9-tetrahydrocannabivarin]
Reported result: 3.63
//
Compound: CCCCCc1cc2c(c(O)c1C(=O)O)[C@@H]1C=C(C)CC[C@H]1C(C)(C)O2 [D9 THCA, delta-9-tetrahydrocannabinolic acid]
Reported result: 0.956
//
Compound: CCCCCc1cc(O)c(C/C=C(\C)CCC=C(C)C)c(O)c1
Reported result: 4.77
//
Compound: CCCCCc1cc(O)c2c(c1)OC(C)(CCC=C(C)C)C=C2 (stereo not shown)
Reported result: 0.316

# input for lookup
Prompt line: I have this compound here, CCCCCc1cc(O)c2c(c1)OC(C)(C)[C@@H]1CCC(C)=C[C@@H]21 [D9 THC, delta-9-tetrahydrocannabinol, reference compound] , and I need its recorded Stability in AB White, 8° C. (content by LCMSMS).
Response line: 11.97
